Target Desc: Sterol O-acyltransferase 1 (Rattus norvegicus, UniProt O70536)
Sequence (O70536 whole entry): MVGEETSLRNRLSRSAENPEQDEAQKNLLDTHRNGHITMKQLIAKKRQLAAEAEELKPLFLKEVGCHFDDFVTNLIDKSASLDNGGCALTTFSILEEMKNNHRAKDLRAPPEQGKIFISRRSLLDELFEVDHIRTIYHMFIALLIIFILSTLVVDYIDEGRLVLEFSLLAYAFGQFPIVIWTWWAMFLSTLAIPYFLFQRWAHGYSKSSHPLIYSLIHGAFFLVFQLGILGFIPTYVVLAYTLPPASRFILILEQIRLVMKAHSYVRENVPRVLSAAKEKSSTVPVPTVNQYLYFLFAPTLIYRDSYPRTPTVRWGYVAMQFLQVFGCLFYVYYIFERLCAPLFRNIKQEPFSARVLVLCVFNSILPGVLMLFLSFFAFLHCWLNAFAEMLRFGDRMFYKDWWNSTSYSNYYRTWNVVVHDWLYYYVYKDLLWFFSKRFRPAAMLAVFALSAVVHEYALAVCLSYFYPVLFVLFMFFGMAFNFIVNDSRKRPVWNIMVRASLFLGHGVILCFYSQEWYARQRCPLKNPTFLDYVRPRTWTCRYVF
Procedure Text: ACAT activity was determined in rat hepatic microsomes by measuring the formation of labeled cholesteryl oleate (pmol/midmg) from [14C]oleoyl-CoA
Assay type: functional, Liver
Experimental Endpoint: pIC50
Give only the number. pIC50 is defined as minus log10 of concentration in molar units.

Name the recorded pIC50 of the item CCCCCCCN(CCCCCSc1nc(-c2ccc(N(C)C)cc2)c(-c2ccc(N(C)C)cc2)[nH]1)C(=O)NC(C)C in your answer.
7.10

----------
Measured pIC50 by item
Target Desc: UniProtKB O70536
Procedure Text: Concentration required to inhibit 50% activity of Acyl coenzyme A:cholesterol acyltransferase 1 in vitro using rat liver microsome.
Type: microsomes
Measurement Context: read-out: IC50
Give only the number. pIC50 is defined as minus log10 of concentration in molar units.

Examples with their reported pIC50 follow.
>>> assay_value("CCCCCCCN(CCCCCSc1nc(-c2ccccc2OC)c(-c2ccccc2OC)[nH]1)C(=O)Nc1ccc(F)cc1F")
6.46
>>> assay_value("COCCOCCN(CCCCCSc1nc(-c2ccc(OC)cc2)c(-c2ccc(OC)cc2)[nH]1)C(=O)NC(C)C")
6.30
>>> assay_value("O=C(Nc1ccc(F)cc1F)N(CCCCCSc1nc(-c2ccccc2)c(-c2ccccc2)[nH]1)CCN1CCOCC1")
7.15
>>> assay_value("CCCCCCCN(CCOCCSc1nc(-c2ccccc2)c(-c2ccccc2)[nH]1)C(=O)Nc1ccc(F)cc1F")
7.10
>>> assay_value("CCCCCCCN(CCCCCSc1nc2c([nH]1)-c1ccccc1OCOc1ccccc1-2)C(=O)Nc1ccc(F)cc1F")
7.52
>>> assay_value("CCCCCCCN(CCCCCSc1nc(-c2ccc(OC)cc2)c(-c2ccc(OC)cc2)[nH]1)C(=O)Oc1ccccc1")
6.19
>>> assay_value("CCCCCCCN(CCCCCSc1nc(CCC)c(CCC)[nH]1)C(=O)Nc1ccc(F)cc1F")
7.22

Let us move to another entry and its pIC50.
Name the recorded pIC50 of the item COc1ccc(-c2nc(SCCCCCN(CCOCCO)C(=O)Nc3ccc(F)cc3F)[nH]c2-c2ccc(OC)cc2)cc1 in your answer.
6.64
